B1: MNAT1 (parent)
chain: LAPIHKLEEALYEYQPLQIETYGP

Variants of: B1
method_summary: protein stability index of a GFP-peptide fusion (GPS, HEK-293T) (PSI 1-6); higher = more stable;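 also: lentivirally expressed fusions sorted by FACS into six bins by GFP to DsRed ratio, PSI derived from sequencing read proportions per bin multiplied by bin number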
applied_conditions: c terminus: a fixed tail appended
property_measured: protein stability index
Keep it simple and answer with nothing but the number.

// known answers, use as guide
LAPIHKLEEALGEYQPLQIETYGP [Y12G] | 2.64
LAPIHKLEELLYEYQPLQIETYGP [A10L] | 1.69
LAPIHQLEEALYEYQPLQIETYGP [K6Q] | 2.24

Ask: Quick one: give measured protein stability index for PAPIHKLEEALYEYQPLQIETYGP [L1P]
Result: 2.3

Ask: Quick one: give measured protein stability index for LGPIHKLEEALYEYQPLQIETYGP [A2G]
Result: 1.45

Ask: Quick one: give measured protein stability index for LAPIHKLEEALYEAQPLQIETYGP [Y14A]
Result: 3.19

Ask: Quick one: give measured protein stability index for LAPIHKLEEALYEYQPLCIETYGP [Q18C]
Result: 2.21

Ask: Quick one: give measured protein stability index for LAPIHKLEEMLYEYQPLQIETYGP [A10M]
Result: 1.45

Ask: Quick one: give measured protein stability index for LAPIHKLEEALYEYKPLQIETYGP [Q15K]
Result: 2.26

Ask: Quick one: give measured protein stability index for LAPIHKLHEALYEYQPLQIETYGP [E8H]
Result: 1.67

Ask: Quick one: give measured protein stability index for LAPIHKLEEALYEYQPLQIETYKP [G23K]
Result: 2.86

Ask: Quick one: give measured protein stability index for LAPIHKLEETLYEYQPLQIETYGP [A10T]
Result: 1.79

Ask: Quick one: give measured protein stability index for IAPIHKLEEALYEYQPLQIETYGP [L1I]
Result: 1.94

Ask: Quick one: give measured protein stability index for LAPIHKLEEVLYEYQPLQIETYGP [A10V]
Result: 2.71

Ask: Quick one: give measured protein stability index for LATIHKLEEALYEYQPLQIETYGP [P3T]
Result: 2.32

Ask: Quick one: give measured protein stability index for LAPIHKLEEALYEIQPLQIETYGP [Y14I]
Result: 2.52
